- target or test system: T1, human TREM2 on BWZ cells (human, UniProt Q9NZC2 19-230)
- T1 construct: whole, on cells; not tied to the cell line; also called BWZ Human TREM2
- T1 sequence (looked up): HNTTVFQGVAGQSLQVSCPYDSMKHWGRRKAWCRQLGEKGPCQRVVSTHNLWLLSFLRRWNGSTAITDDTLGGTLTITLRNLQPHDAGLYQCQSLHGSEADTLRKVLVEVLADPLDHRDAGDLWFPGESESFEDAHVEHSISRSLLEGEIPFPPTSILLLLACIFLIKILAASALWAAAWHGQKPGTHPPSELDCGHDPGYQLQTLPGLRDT
- experiment: FACS, BWZ cells
measurement label: binding result

Which value of binding result has been reported for T1-34 (antibody, IgG1, V domains shown, huIgG1; also called TI-34; ADI-19108) VH: EVQLVESGGGLVKPGGSLRLSCAASGFTFSSYSMNWVRQAPGKGLEWVSSISSSSNYIYYADSVKGRFTISRDNAKNSLYLQMNSLKAEDTAVYYCARRPDDRRGLFQHWGQGTLVTVSS VL: DIQMTQSPSTLSASVGDRVTITCRASQSINSWLAWYQQKPGKAPKLLISDASSLESGVPSRFSGSGSGTEFTLTISSLQPDDFATYYCQQYGPYPYTFGGGTKVEIK in the records?
no binding

Which value of binding result has been reported for T1-70 (antibody, IgG1, V domains shown, huIgG1; also called TI-70; ADI-19146) VH: QVQLVQSGAEVKKPGASVKVSCKASGYTFTSYGIHWVRQAPGQGLEWMGWISAYNGNTNYAQKLQGRVTMTTDTSTSTAYMELRSLRSDDTAVYYCARAGTIYGRLDLWGRGTLVTVSS VL: DIQLTQSPSSVSASVGDRVTITCRASQDISSWLAWYQQKPGKAPKLLIYAASSLQSGVPSRFSGSGSGTDFTLTISSLQPEDFATYYCQQAVSHPLTFGGGTKVEIK in the records?
no binding

Which value of binding result has been reported for T1-27 (antibody, IgG1, V domains shown, huIgG1; also called TI-27) VH: QVQLQESGPGLVKPSQTLSLTCTVSGGSISSGGYYWSWIRQHPGKGLEWIGYIYYSGSTYYNPSLKSRVTISVDTSKNQFSLKLSSVTAADTAVYYCARDSSIAGRATLSFDYWGQGTLVTVSS VL: DIQMTQSPSSLSASVGDRVTITCRASQSISSYLNWYQQKPGKAPKLLIYAASSLQSGVPSRFSGSGSGTDFTLTISSLQPEDFATYYCQQSFYDPITFGGGTKVEIK in the records?
no binding
